Below, each entry is listed alongside its reported cell killing IC50, ARP-1 (MM) cells.
target: CD74 (human), P04233; test: cell-based or functional assay
Sequence (P04233 whole entry): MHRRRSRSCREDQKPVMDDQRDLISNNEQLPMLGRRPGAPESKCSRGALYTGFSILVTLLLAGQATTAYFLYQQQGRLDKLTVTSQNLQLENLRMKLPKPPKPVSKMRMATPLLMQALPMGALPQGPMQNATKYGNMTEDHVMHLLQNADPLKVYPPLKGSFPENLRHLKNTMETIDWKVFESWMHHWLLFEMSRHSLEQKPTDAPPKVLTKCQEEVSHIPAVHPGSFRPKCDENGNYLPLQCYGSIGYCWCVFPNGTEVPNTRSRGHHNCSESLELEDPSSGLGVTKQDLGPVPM
Unit nM implied. Number only.

Worked examples, 3 binders total:
binder | unit_of_measurement | cell killing IC50, ARP-1 (MM) cells
Conjugate E (anti-CD74 IgG-PEG4-MMAF conjugate) (antibody, V domains shown, here or on the partner: modified amino acid residue 30 (pAMF) according to Example 2, position not stated for this conjugate, linked to PEG4-MMAF) VH: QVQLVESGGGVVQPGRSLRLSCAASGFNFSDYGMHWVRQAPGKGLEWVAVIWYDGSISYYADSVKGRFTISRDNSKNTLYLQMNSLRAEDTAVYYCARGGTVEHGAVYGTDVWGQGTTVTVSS VL: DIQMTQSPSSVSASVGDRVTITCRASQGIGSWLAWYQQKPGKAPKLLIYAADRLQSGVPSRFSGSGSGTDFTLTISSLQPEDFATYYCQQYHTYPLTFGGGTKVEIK | nM | 6
Conjugate A (anti-CD74 IgG-DBCO-PEG4-maytansine conjugate) (antibody, V domains shown, here or on the partner: para-azidomethyl-L-phenylalanine (pAMF, residue 30) at heavy chain EU position 404 (constant region, outside SEQ ID NO 236), linked to DBCO-PEG4-maytansine) VH: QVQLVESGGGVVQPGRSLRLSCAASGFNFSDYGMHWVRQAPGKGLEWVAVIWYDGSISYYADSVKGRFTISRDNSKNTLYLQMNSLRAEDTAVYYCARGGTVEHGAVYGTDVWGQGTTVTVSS VL: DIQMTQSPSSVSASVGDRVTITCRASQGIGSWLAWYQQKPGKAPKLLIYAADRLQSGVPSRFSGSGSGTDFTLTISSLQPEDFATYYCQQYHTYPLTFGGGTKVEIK | nM | 9
Conjugate F (anti-CD74 IgG-PEG4-MMAE conjugate) (antibody, V domains shown, here or on the partner: modified amino acid residue 30 (pAMF) according to Example 2, position not stated for this conjugate, linked to PEG4-MMAE) VH: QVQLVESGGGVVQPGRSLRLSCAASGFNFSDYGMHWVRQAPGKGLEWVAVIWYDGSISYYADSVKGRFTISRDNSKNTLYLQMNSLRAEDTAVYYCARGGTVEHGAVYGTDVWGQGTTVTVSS VL: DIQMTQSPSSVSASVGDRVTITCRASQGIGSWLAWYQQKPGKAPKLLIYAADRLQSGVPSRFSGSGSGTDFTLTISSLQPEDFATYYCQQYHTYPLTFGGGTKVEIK | nM | 4.2

# ---- query binder ----
Param item = Conjugate B (anti-CD74 IgG-PEG4-maytansine conjugate) (antibody, V domains shown, here or on the partner: modified amino acid residue 30 (pAMF) according to Example 2, position not stated for this conjugate, linked to a PEG4-maytansine linker-payload) VH: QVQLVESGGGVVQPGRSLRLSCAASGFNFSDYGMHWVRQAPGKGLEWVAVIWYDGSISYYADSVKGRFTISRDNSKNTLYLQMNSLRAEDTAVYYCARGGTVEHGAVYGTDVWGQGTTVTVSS VL: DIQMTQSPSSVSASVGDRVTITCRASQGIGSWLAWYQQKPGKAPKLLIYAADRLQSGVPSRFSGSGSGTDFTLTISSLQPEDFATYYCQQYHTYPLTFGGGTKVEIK ; retrieve measured cell killing IC50, ARP-1 (MM) cells.
16
